Data provenance is paper PMC9718554.

system-name: E. coli DdlB enzyme (D-alanine:D-alanine ligase) (Escherichia coli)
Construct: made in house; host or cells: E. coli
assay-notes: biochemical
test-parameters: tested concentration 1.8 mM; read-out: DdlB RA
What remaining activity at 1800 µM was measured for each of the following?
Expressed in %, but write only the number.

input: What value of remaining activity at 1800 µM on E. coli DdlB enzyme (D-alanine:D-alanine ligase) (Escherichia coli) does "Cc1cc2nc(COC(=O)c3ccco3)cc(=O)n2o1" have?
output: 92

input: What value of remaining activity at 1800 µM on E. coli DdlB enzyme (D-alanine:D-alanine ligase) (Escherichia coli) does "COCCn1c(CCC(=O)O)ccc1-c1ccccc1" have?
output: 90

input: What value of remaining activity at 1800 µM on E. coli DdlB enzyme (D-alanine:D-alanine ligase) (Escherichia coli) does "O=c1c(-c2ccc(Cl)cc2)c(N2CCOCC2)c1=O" have?
output: 141

input: What value of remaining activity at 1800 µM on E. coli DdlB enzyme (D-alanine:D-alanine ligase) (Escherichia coli) does "CCC(CC)C(=O)Nc1ccc(S(N)(=O)=O)cc1" have?
output: 81

input: What value of remaining activity at 1800 µM on E. coli DdlB enzyme (D-alanine:D-alanine ligase) (Escherichia coli) does CCCC(C)C(=O)Nc1ccc(S(N)(=O)=O)cc1 (stereo not drawn) have?
output: 77

input: What value of remaining activity at 1800 µM on E. coli DdlB enzyme (D-alanine:D-alanine ligase) (Escherichia coli) does NS(=O)(=O)c1ccc(CNC(=O)C2CCCO2)cc1 (stereo not drawn) have?
output: 97

input: What value of remaining activity at 1800 µM on E. coli DdlB enzyme (D-alanine:D-alanine ligase) (Escherichia coli) does O=C(O)C1CCCCC1C(=O)NCc1ccc(F)cc1 (stereo not drawn) have?
output: 95

input: What value of remaining activity at 1800 µM on E. coli DdlB enzyme (D-alanine:D-alanine ligase) (Escherichia coli) does CSCCC(C(=O)O)N1C(=O)NC2NC(=O)NC21 (stereo not drawn) have?
output: 95

input: What value of remaining activity at 1800 µM on E. coli DdlB enzyme (D-alanine:D-alanine ligase) (Escherichia coli) does "CCN(CC)CCNc1c(-c2ccccc2)c(=O)c1=O" have?
output: 94

---

system-name: E. coli DdlB enzyme (D-alanine:D-alanine ligase) (Escherichia coli)
Construct: made in house; host or cells: E. coli
assay-notes: biochemical
test-parameters: residual activity; tested concentration 2.2 mM; read-out: DdlB RA
# Condition met = remaining activity at 2200 µM below 90% (exclusive); Condition not met = remaining activity at 2200 µM at/above 90%

input: Report whether reported remaining activity at 2200 µM is lower than 90% (strictly) for O=C(Nc1ccccc1)c1nc[nH]c1C(=O)O [Compound 8011-9089]
output: Condition not met

input: Report whether reported remaining activity at 2200 µM is lower than 90% (strictly) for Cn1nc(CCC(=O)NC2CCCC2)c2c1CCOC2 [SD48-0064]
output: Condition not met

input: Report whether reported remaining activity at 2200 µM is lower than 90% (strictly) for O=C(Nc1nc[nH]n1)c1ccc(Cl)cc1 [Compound 8003-7117]
output: Condition not met

input: Report whether reported remaining activity at 2200 µM is lower than 90% (strictly) for Cc1ccc(C)c(S(=O)(=O)N2CCCC(C)C2)c1 (centres unmarked) [Compound Y206-4328]
output: Condition not met

input: Report whether reported remaining activity at 2200 µM is lower than 90% (strictly) for O=C(c1ccoc1)N1C[C@@H](CO)[C@H](c2ccncc2)C1 [Compound S824-2534]
output: Condition not met

input: Report whether reported remaining activity at 2200 µM is lower than 90% (strictly) for CC(C)CNC(=O)Cc1c[nH]c2ncccc12 [Compound M508-0619]
output: Condition not met

input: Report whether reported remaining activity at 2200 µM is lower than 90% (strictly) for CCC(C)(C)NC(=O)C1CC(=O)N(c2ccccc2)C1 (centres unmarked) [Compound Y031-3748]
output: Condition not met

input: Report whether reported remaining activity at 2200 µM is lower than 90% (strictly) for O=C(O)C1CCN(c2cnc(N3CCCC3)nc2)CC1 [FF01-3116]
output: Condition met

input: Report whether reported remaining activity at 2200 µM is lower than 90% (strictly) for CC1(C)CC(=O)CC(C)(C)N1OC(=O)c1ccccn1 [Compound 8012-5220]
output: Condition not met

input: Report whether reported remaining activity at 2200 µM is lower than 90% (strictly) for CC1(CNC(=O)c2ccccc2Cl)CCOCC1 [Compound P970-0504]
output: Condition not met

input: Report whether reported remaining activity at 2200 µM is lower than 90% (strictly) for Cn1nccc1C(=O)N1CCC(Nc2cccnc2)C1 (centres unmarked) [Compound S059-0159]
output: Condition met

input: Report whether reported remaining activity at 2200 µM is lower than 90% (strictly) for NC(=O)CN1C(=O)C2(CCCCC2)C1c1ccccc1 (centres unmarked) [Compound S642-0104]
output: Condition not met

input: Report whether reported remaining activity at 2200 µM is lower than 90% (strictly) for O=C(NCCc1ccco1)C1COc2ccccc2C1 (centres unmarked) [Compound G668-0290]
output: Condition met

input: Report whether reported remaining activity at 2200 µM is lower than 90% (strictly) for Cc1ncc(CO)c(C2CCCN(C(=O)C(C)C)C2)n1 (centres unmarked) [SA04-1071]
output: Condition not met

input: Report whether reported remaining activity at 2200 µM is lower than 90% (strictly) for O=[N+]([O-])c1cc(Cl)c2cccnc2c1O [Compound 8011-4676]
output: Condition met

input: Report whether reported remaining activity at 2200 µM is lower than 90% (strictly) for CCCN(C)C(=O)Cc1c[nH]c2ncccc12 [Compound M508-0627]
output: Condition met

input: Report whether reported remaining activity at 2200 µM is lower than 90% (strictly) for Cc1c(C)c(C)c(S(=O)(=O)NC(C)C)c(C)c1C [Compound Y206-5269]
output: Condition met

input: Report whether reported remaining activity at 2200 µM is lower than 90% (strictly) for CC1(C)Cc2[nH]c(=O)c(C(=O)O)cc2CO1 [Compound 4965-0162]
output: Condition not met

input: Report whether reported remaining activity at 2200 µM is lower than 90% (strictly) for O=[N+]([O-])c1cc(Cl)c(O)c2ncccc12 [Compound 8017-0599]
output: Condition met

input: Report whether reported remaining activity at 2200 µM is lower than 90% (strictly) for Cc1ccccc1CS(=O)(=O)N1CCCC(C)C1 (centres unmarked) [Compound Y300-2308]
output: Condition not met

input: Report whether reported remaining activity at 2200 µM is lower than 90% (strictly) for O=C(O)c1cc(-c2ccccc2Cl)on1 [Compound D717-0173]
output: Condition not met

input: Report whether reported remaining activity at 2200 µM is lower than 90% (strictly) for Cc1onc(-c2ccccc2Cl)c1C(=O)NCC#N [Compound Y030-1543]
output: Condition not met

input: Report whether reported remaining activity at 2200 µM is lower than 90% (strictly) for CC(C)c1ccc(C(=O)Nc2nnc[nH]2)cc1 [Compound Y200-5752]
output: Condition met

input: Report whether reported remaining activity at 2200 µM is lower than 90% (strictly) for CC(C)Oc1n[nH]c(-c2ccc(Cl)cc2Cl)n1 [Compound V017-7311]
output: Condition not met

input: Report whether reported remaining activity at 2200 µM is lower than 90% (strictly) for Cc1cccnc1C(=O)N1CCC2(CC1)CCC2(C)O (centres unmarked) [Compound S971-1225]
output: Condition not met

input: Report whether reported remaining activity at 2200 µM is lower than 90% (strictly) for O=S(=O)(Cc1ccc(Cl)cc1)N1CCOCC1 [Compound Y031-1160]
output: Condition not met

input: Report whether reported remaining activity at 2200 µM is lower than 90% (strictly) for CC(C)CN1CC(O)CN(C(=O)C2CCC2)CC1=O (centres unmarked) [SA85-1056]
output: Condition not met

input: Report whether reported remaining activity at 2200 µM is lower than 90% (strictly) for CCc1cc(C(=O)N2CC3(C)CC2CC(C)(C)C3)no1 (centres unmarked) [Compound C226-2780]
output: Condition met

input: Report whether reported remaining activity at 2200 µM is lower than 90% (strictly) for Cc1cc(C(=O)O)n2nc(C)c(Cl)c2n1 [Compound Y504-8761]
output: Condition not met

input: Report whether reported remaining activity at 2200 µM is lower than 90% (strictly) for CC(=O)N1CC(=O)N(CCc2ccccc2)CC(O)C1 (centres unmarked) [SA85-1024]
output: Condition not met

input: Report whether reported remaining activity at 2200 µM is lower than 90% (strictly) for O=C1Cn2nnc(CNC(=O)NC3CCCC3)c2CN1 [SC45-0107]
output: Condition not met

input: Report whether reported remaining activity at 2200 µM is lower than 90% (strictly) for CCc1c(C)[nH]c(=O)c(C(=O)O)c1C(N)=O [Compound 8020-6319]
output: Condition met

input: Report whether reported remaining activity at 2200 µM is lower than 90% (strictly) for COc1cc(C(=O)NO)cc(OC)c1OC [Compound 8017-0604]
output: Condition not met

input: Report whether reported remaining activity at 2200 µM is lower than 90% (strictly) for COC(=O)c1sc(C(=O)OC)c(O)c1O [Compound 8011-7913]
output: Condition met

input: Report whether reported remaining activity at 2200 µM is lower than 90% (strictly) for c1cnc2[nH]cc(CCN3CCNCC3)c2c1 [FF01-3277]
output: Condition met
